Target: T1, recombinant canine β NGF (canine, UniProt Q29074 110-229 (pig entry))
T1 construct: also called canine NGF
T1 chain: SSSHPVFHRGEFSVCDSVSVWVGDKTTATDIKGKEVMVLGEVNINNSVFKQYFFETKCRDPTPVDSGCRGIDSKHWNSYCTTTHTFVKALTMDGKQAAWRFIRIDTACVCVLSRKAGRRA
Test: direct ELISA, canine NGF coated at 1 µg/ml, mAb at 0.4 µg/ml
quantity name: absorbance at 450 nm (A450)
Give just the numeric value; A450 need not be written.

[
  {
    "binder": "PR-1254973 (antibody, mouse IgG2b, V domains shown, also called 2B12; ML129-2B12.5G9) VH: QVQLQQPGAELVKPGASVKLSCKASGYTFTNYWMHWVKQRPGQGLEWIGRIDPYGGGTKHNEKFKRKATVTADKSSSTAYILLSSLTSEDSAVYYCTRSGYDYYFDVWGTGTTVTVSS VL: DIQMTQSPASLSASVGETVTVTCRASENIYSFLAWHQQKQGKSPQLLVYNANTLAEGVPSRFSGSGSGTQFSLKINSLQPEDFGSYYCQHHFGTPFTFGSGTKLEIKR",
    "absorbance at 450 nm, A450": 0.769
  },
  {
    "binder": "PR-1254982 (antibody, mouse IgG1, V domains shown, also called 3F7; ML130-3F7.4A8) VH: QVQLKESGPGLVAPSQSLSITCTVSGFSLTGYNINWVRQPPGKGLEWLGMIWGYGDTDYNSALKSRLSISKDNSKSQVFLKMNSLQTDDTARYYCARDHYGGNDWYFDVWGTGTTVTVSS VL: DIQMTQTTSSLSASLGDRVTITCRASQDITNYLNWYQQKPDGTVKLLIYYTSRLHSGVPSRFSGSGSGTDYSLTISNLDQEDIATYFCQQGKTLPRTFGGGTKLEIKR",
    "absorbance at 450 nm, A450": 0.095
  },
  {
    "binder": "PR-1254972 (antibody, mouse IgG2b, V domains shown, also called 20B10; ML129-20B10.3F4) VH: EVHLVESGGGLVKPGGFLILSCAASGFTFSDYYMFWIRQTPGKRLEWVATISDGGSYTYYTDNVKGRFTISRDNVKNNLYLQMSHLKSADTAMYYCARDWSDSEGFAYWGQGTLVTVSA VL: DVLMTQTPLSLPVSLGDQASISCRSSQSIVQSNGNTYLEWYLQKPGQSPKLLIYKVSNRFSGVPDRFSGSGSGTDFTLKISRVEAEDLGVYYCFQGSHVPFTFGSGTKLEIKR",
    "absorbance at 450 nm, A450": 0.071
  }
]

As a next step, examine the binder that follows.
Per the record, PR-1254977 (antibody, mouse IgG1, V domains shown, also called 21D4; ML129-21D4.4A11) VH: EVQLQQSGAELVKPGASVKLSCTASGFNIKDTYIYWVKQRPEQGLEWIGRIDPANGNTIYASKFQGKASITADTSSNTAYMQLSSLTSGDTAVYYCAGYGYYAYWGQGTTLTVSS VL: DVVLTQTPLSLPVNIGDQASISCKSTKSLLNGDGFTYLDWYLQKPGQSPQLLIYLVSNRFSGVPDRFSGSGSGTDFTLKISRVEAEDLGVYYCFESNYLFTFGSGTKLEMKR has absorbance at 450 nm of 0.223
